What IC50 was measured for each of the following?
measured.on: LSD1 (Homo sapiens, UniProt O60341)
test.description: LSD1 inhibitor screening assay kit
cond: read-out: IC50 (μM) LSD1

Could you report IC50 for every entry in the following list?
1. COc1cc(N(CCSC(=S)N2CCN(CCO)CC2)S(=O)(=O)c2cccc3cccnc23)cc(OC)c1OC [Compound L3]
2. COc1cc(N(CCCSC(=S)N2CCN(CCO)CC2)S(=O)(=O)c2cccc3cccnc23)cc(OC)c1OC [Compound L4]
3. COc1cc(N(CCCCSC(=S)N2CCN(CCO)CC2)S(=O)(=O)c2cccc3cccnc23)cc(OC)c1OC [Compound L8]
4. COc1cc(N(CCCCSC(=S)N2CCN(C)CC2)S(=O)(=O)c2cccc3cccnc23)cc(OC)c1OC [Compound L7]
5. CCN1CCN(C(=S)SCCCCN(c2cc(OC)c(OC)c(OC)c2)S(=O)(=O)c2cccc3cccnc23)CC1 [Compound L5]

Reply |
1. 1.85 µM
2. 0.67 µM
3. 0.06 µM
4. 0.73 µM
5. 4.92 µM

----------
Test system: HT1376&shControl cells
test.description: Antiproliferative activity, control cells HT1376&shControl
cond: read-out: IC50 against HT1376&shControl cells
measurement.kind: IC50

Ask | Give recorded IC50 with HT1376&shControl cells for the following compound: COc1cc(N(CCCCSC(=S)N2CCN(CCO)CC2)S(=O)(=O)c2cccc3cccnc23)cc(OC)c1OC
Reply | 110 nM

----------
Test system: HT1376 cells (bladder cancer cell line)
test.description: MTT cell viability assay, HT1376
cond: read-out: IC50 against HT1376 cells; 48 h
measurement.kind: pIC50
One number for each entry, as −log10 of the molar value.

Ask | Sample COc1cc(N(CCCCSC(=S)N2CCN(CCO)CC2)S(=O)(=O)c2cccc3cccnc23)cc(OC)c1OC [Compound L8] — what was its pIC50?
Reply | 7.05

----------
Tested on: HT1376&shLSD1 cells
test.description: Antiproliferative activity, LSD1 knock-down cells HT1376&shLSD1
cond: read-out: IC50 against HT1376&shLSD1 cells
measurement.kind: IC50 (µM)
Numbers only, in µM.

Ask | Sample COc1cc(N(CCCCSC(=S)N2CCN(CCO)CC2)S(=O)(=O)c2cccc3cccnc23)cc(OC)c1OC — what was its IC50?
Reply | 4.36

----------
Test system: HTB3&shControl cells
test.description: Antiproliferative activity, control cells HTB3&shControl
cond: read-out: IC50 against HTB3&shControl cells
measurement.kind: IC50 (nM)
Answers are plain numbers, in nM.

Ask | Sample COc1cc(N(CCCCSC(=S)N2CCN(CCO)CC2)S(=O)(=O)c2cccc3cccnc23)cc(OC)c1OC — what was its IC50?
Reply | 230

----------
What pIC50 was measured for each of the following?
measured.on: LSD1 (Homo sapiens, UniProt O60341)
test.description: LSD1 inhibitor screening assay kit
Give bare numbers, as −log10 of the molar value.

# count of solved cases: 3
# compound, pIC50
rows = [
    ("COc1ccc(S(=O)(=O)Nc2cccc3cccnc23)cc1", 4.34),
    ("COc1cc(N(CCCBr)S(=O)(=O)c2cccc3cccnc23)cc(OC)c1OC", 5.02),
    ("COc1cc(N(CCSC(=S)N2CCN(C(=O)OC(C)(C)C)CC2)S(=O)(=O)c2cccc3cccnc23)cc(OC)c1OC", 5.56),
]

Could you report pIC50 for every entry in the following list?
1. CC(C)(C)c1ccc(S(=O)(=O)Nc2cccc3cccnc23)cc1
2. Cc1ccc(S(=O)(=O)Nc2cccc3cccnc23)cc1
3. COc1cc(N(CCCCBr)S(=O)(=O)c2cccc3cccnc23)cc(OC)c1OC
4. COc1cc(N(CCBr)S(=O)(=O)c2cccc3cccnc23)cc(OC)c1OC
5. COc1cc(N(CCCSC(=S)N2CCN(C(=O)OC(C)(C)C)CC2)S(=O)(=O)c2cccc3cccnc23)cc(OC)c1OC
6. O=S(=O)(Nc1cccc2cccnc12)c1ccc(Br)cc1

Reply |
1: 4.21; 2: 4.13; 3: 5.20; 4: 4.83; 5: 5.86; 6: 4.21

----------
What melting point was measured for each of the following?

# count of solved cases: 5
# compound, result
records = [
    ("COc1cc(N(CCCCBr)S(=O)(=O)c2cccc3cccnc23)cc(OC)c1OC [Compound K3]", "103 to 104 °C"),
    ("COc1cc(N(CCCSC(=S)N2CCN(C(=O)OC(C)(C)C)CC2)S(=O)(=O)c2cccc3cccnc23)cc(OC)c1OC [Compound L2]", "130 to 132 °C"),
    ("COc1cc(N(CCBr)S(=O)(=O)c2cccc3cccnc23)cc(OC)c1OC [Compound K1]", "158 to 160 °C"),
    ("COc1cc(N(CCSC(=S)N2CCN(C(=O)OC(C)(C)C)CC2)S(=O)(=O)c2cccc3cccnc23)cc(OC)c1OC [Compound L1]", "121 to 123 °C"),
    ("O=S(=O)(Nc1cccc2cccnc12)c1ccc(Br)cc1 [Compound J6]", "192 to 194 °C"),
]

Ask | Sample COc1cc(N(CCCCSC(=S)N2CCN(C(=O)OC(C)(C)C)CC2)S(=O)(=O)c2cccc3cccnc23)cc(OC)c1OC [Compound L6] — what was its melting point?
Reply | 98 to 100 °C

----------
measured.on: MAO-B (Homo sapiens)
Construct: purchased Promega
Sequence (P27338 whole entry, species assumed): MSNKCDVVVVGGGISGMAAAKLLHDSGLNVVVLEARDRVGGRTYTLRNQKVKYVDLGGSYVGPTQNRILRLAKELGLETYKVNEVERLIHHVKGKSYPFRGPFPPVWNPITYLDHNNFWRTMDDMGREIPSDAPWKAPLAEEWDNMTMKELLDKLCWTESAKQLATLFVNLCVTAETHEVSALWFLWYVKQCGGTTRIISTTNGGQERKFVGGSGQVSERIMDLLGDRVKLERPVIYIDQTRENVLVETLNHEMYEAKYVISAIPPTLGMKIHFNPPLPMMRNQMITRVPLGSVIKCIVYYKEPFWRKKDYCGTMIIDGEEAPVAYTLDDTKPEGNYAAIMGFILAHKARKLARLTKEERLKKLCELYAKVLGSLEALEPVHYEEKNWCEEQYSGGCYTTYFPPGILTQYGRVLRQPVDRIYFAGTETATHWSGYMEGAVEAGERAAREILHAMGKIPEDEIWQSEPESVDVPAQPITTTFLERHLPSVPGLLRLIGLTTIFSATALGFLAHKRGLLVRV
test.description: MAO-A/B biochemical kit, MAO-B
What IC50 was measured for each of the following?

# count of solved cases: 6
# compound, IC50
records = [
    ("COc1ccc(S(=O)(=O)Nc2cccc3cccnc23)cc1OC [Compound J1]", "> 120 µM"),
    ("COc1cc(NS(=O)(=O)c2cccc3cccnc23)cc(OC)c1OC [Compound J7]", "> 120 µM"),
    ("COc1cc(N(CCCCSC(=S)N2CCN(CCO)CC2)S(=O)(=O)c2cccc3cccnc23)cc(OC)c1OC [Compound L8]", "> 120 µM"),
    ("CCN1CCN(C(=S)SCCCCN(c2cc(OC)c(OC)c(OC)c2)S(=O)(=O)c2cccc3cccnc23)CC1 [Compound L5]", "> 120 µM"),
    ("COc1cc(N(CCSC(=S)N2CCN(CCO)CC2)S(=O)(=O)c2cccc3cccnc23)cc(OC)c1OC [Compound L3]", "> 120 µM"),
    ("COc1cc(N(CCSC(=S)N2CCN(C(=O)OC(C)(C)C)CC2)S(=O)(=O)c2cccc3cccnc23)cc(OC)c1OC [Compound L1]", "> 120 µM"),
]

Could you report IC50 for every entry in the following list?
1. COc1cc(N(CCCCSC(=S)N2CCN(C)CC2)S(=O)(=O)c2cccc3cccnc23)cc(OC)c1OC [Compound L7]
2. COc1ccc(S(=O)(=O)Nc2cccc3cccnc23)cc1 [Compound J2]
3. O=S(=O)(Nc1cccc2cccnc12)c1ccccc1 [Compound J4, N-(quinolin-8-yl)benzenesulphonamide]

Reply |
1: > 120 µM; 2: > 120 µM; 3: > 120 µM

Could you report IC50 for every entry in the following list?
1. COc1cc(N(CCCCBr)S(=O)(=O)c2cccc3cccnc23)cc(OC)c1OC [Compound K3]
2. O=S(=O)(Nc1cccc2cccnc12)c1ccc(Br)cc1 [Compound J6]
3. Cc1ccc(S(=O)(=O)Nc2cccc3cccnc23)cc1 [Compound J5]
4. COc1cc(N(CCCSC(=S)N2CCN(C(=O)OC(C)(C)C)CC2)S(=O)(=O)c2cccc3cccnc23)cc(OC)c1OC [Compound L2]

Reply |
1: > 120 µM; 2: > 120 µM; 3: > 120 µM; 4: > 120 µM

----------
measured.on: LSD1 (Homo sapiens)
test.description: LSD1 inhibitor screening assay kit
What pIC50 was measured for each of the following?
Answers are plain numbers, as −log10 of the molar value.

# count of solved cases: 2
# compound, measurement.kind, readout.number
rows = [
    ("COc1cc(N(CCCCSC(=S)N2CCN(C(=O)OC(C)(C)C)CC2)S(=O)(=O)c2cccc3cccnc23)cc(OC)c1OC", "pIC50", 6.64),
    ("COc1cc(NS(=O)(=O)c2cccc3cccnc23)cc(OC)c1OC", "pIC50", 4.94),
]

Could you report pIC50 for every entry in the following list?
1. O=S(=O)(Nc1cccc2cccnc12)c1ccccc1 [Compound J4, N-(quinolin-8-yl)benzenesulphonamide]
2. COc1ccc(S(=O)(=O)Nc2cccc3cccnc23)cc1OC

Reply |
1: 4.08; 2: 4.47
